Assay: AUC (0 to infinity) in C57BL/6 mouse at 100 mg/kg, po […] by LC-MS/MS analysis
Format: ADME, organism-based
Set-up: dose 100 mg/kg, route po
Conditions: in vivo
value kind: AUC(0-inf) (µg·h/mL)

- CCCCCCCCCCCCCCCc1cccc(OC(C)(C)C(=O)O)c1: 717

###

Test: Relative bioavailability in C57BL/6 mouse at 100 mg/kg […] by LC-MS/MS analysis
Assay type: ADME, organism-based
Settings: in vivo
value kind: bioavailability (%)

* CCCCCCCCCCCCCCCc1cccc(OC(C)(C)C(=O)O)c1 | 38

###

Assay: Cmax in C57BL/6 mouse at 40 mg/kg, ip measured upto 24 hrs by LC-MS/MS analysis
Assay type: ADME, organism-based
Parameters: dose 40 mg/kg, time < 24 hrs, route ip
Details: in vivo
value kind: Cmax (µg/mL)

* CCCCCCCCCCCCCCCc1cccc(OC(C)(C)C(=O)O)c1 | 102
